Cited source for all entries: patent US11547697B2

- system: p110β/p85α (Homo sapiens (Human), UniProt P42338)
- Sequence (P42338 whole entry): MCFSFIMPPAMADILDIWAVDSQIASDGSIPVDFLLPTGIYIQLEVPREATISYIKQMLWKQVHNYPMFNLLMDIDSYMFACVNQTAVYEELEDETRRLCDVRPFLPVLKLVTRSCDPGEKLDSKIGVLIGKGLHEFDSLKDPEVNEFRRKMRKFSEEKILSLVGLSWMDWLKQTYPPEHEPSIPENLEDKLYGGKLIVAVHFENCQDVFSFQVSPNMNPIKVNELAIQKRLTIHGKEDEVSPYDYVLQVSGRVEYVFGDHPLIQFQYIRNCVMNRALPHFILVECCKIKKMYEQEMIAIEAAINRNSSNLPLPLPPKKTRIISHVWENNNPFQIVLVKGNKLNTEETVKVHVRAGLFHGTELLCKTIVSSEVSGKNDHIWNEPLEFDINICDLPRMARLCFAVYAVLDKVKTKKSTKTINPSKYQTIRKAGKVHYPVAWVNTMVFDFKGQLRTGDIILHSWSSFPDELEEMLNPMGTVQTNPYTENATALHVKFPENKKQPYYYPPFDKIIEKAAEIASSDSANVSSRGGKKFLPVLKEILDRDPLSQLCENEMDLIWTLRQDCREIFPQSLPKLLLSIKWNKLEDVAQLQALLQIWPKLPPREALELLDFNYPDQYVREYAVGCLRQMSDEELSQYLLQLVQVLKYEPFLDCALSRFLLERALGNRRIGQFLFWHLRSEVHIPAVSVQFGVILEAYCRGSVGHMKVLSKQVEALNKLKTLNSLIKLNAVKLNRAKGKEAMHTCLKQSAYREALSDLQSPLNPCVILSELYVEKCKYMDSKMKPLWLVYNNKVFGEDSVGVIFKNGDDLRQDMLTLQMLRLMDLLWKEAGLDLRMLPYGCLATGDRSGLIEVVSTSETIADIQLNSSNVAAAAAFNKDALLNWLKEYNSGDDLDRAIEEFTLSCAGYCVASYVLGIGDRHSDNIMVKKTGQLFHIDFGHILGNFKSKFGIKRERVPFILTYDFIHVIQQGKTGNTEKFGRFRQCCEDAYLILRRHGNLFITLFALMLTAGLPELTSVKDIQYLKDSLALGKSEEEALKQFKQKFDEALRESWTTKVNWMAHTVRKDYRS
- Sequence (P27986 whole entry partner): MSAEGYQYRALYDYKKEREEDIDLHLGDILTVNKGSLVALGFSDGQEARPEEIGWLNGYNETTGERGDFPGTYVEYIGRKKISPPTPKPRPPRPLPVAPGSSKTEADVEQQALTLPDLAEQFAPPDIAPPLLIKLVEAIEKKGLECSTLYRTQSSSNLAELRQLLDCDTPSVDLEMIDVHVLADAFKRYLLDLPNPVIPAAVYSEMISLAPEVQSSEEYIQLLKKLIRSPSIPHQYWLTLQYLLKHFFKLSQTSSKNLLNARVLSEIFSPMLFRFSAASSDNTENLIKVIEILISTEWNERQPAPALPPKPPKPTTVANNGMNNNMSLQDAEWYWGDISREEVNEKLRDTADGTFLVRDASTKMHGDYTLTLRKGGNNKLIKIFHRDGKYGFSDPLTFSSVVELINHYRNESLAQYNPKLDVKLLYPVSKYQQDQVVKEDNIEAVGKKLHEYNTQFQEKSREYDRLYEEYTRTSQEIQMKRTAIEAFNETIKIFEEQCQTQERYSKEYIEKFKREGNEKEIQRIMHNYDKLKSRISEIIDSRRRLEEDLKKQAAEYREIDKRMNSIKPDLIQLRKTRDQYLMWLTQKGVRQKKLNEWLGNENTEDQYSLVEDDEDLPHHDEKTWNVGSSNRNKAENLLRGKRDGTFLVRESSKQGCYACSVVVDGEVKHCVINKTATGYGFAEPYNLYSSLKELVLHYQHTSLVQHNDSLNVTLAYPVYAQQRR
- experimental_protocol: PI 3-Kinase (human) HTRF assay, p110β/p85α
- Format: biochemical
- condition_info: read-out: PI3K β IC50
Listed here are molecules together with their documented IC50.
readout: IC50

{"columns": ["smiles_text", "system", "readout", "experimental_value"],
 "data": [
  ["Cn1c(=O)n(-c2ccc(C(C)(C)C#N)cc2)c2c3cc(-c4ccc5oc(N)nc5c4)ccc3ncc21", "p110β/p85α (Homo sapiens (Human), UniProt P42338)", "IC50", "< 0.1 µM"],
  ["Nc1nc2cc(-c3ccc4ncc(N5CCN(C(=O)[C@@H]6CCCN6)CC5)nc4c3)ccc2o1", "p110β/p85α (Homo sapiens (Human), UniProt P42338)", "IC50", "< 0.1 µM"],
  ["CN1CCC(NC(=O)c2cnc3ccc(-c4ccc5oc(N)nc5c4)cn23)CC1", "p110β/p85α (Homo sapiens (Human), UniProt P42338)", "IC50", "< 1 µM"],
  ["CC(C)N1CCC(n2cnc3ccc(-c4ccc5oc(N)nc5c4)cc3c2=O)CC1", "p110β/p85α (Homo sapiens (Human), UniProt P42338)", "IC50", "< 10 µM"]
]}

====

- system: p110δ/p85α (Homo sapiens (Human), UniProt O00329)
- Sequence (O00329 whole entry, one chain of several): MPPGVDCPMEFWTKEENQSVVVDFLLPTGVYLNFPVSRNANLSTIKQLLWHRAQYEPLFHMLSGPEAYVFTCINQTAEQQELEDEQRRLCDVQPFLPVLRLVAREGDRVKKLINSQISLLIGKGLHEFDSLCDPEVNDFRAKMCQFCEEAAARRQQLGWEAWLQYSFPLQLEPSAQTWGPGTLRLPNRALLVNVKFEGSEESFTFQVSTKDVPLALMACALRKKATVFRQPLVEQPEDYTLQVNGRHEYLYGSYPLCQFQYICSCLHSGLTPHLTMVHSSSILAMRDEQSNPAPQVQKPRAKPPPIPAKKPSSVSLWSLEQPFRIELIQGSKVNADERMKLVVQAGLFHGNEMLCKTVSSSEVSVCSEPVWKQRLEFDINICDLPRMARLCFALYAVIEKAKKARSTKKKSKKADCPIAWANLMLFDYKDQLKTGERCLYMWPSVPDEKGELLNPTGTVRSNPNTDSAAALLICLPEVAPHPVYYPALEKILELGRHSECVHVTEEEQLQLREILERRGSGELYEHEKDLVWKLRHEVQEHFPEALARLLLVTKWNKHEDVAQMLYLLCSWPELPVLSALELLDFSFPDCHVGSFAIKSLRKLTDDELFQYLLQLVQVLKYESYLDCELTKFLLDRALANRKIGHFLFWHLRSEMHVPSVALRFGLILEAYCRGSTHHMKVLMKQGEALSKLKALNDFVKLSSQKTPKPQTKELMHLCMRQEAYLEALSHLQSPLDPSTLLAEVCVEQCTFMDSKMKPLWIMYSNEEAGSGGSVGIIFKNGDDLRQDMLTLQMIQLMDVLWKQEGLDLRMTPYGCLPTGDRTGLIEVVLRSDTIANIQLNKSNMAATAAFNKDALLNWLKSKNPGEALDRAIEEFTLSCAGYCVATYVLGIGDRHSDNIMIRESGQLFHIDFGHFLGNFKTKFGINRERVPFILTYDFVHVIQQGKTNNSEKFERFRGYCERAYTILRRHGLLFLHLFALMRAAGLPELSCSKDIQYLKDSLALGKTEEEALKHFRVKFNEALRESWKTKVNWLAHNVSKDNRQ
- experimental_protocol: PI 3-Kinase (human) HTRF assay, p110δ/p85α
- Assay type: biochemical
- condition_info: read-out: PI3K δ In Vitro IC50
pIC50: −log10 of the molar value.

{"columns": ["compound", "system", "pIC50"],
 "data": [
  ["O=C(c1cnc2ccc(-c3cnc(Cl)c(NS(=O)(=O)c4ccccc4)c3)cn12)N1CCOCC1 [compound 451]", "p110δ/p85α (Homo sapiens (Human), UniProt O00329)", "> 7.00"],
  ["COc1ncc(-c2ccc3ncc(C(=O)N4CCOCC4)n3c2)cc1NS(=O)(=O)c1cccc(F)c1 [compound 423]", "p110δ/p85α (Homo sapiens (Human), UniProt O00329)", "> 7.00"],
  ["Nc1nc2cc(-c3ccc4ncc(C(=O)N5CC(n6cccn6)C5)n4c3)ccc2o1 [compound 479]", "p110δ/p85α (Homo sapiens (Human), UniProt O00329)", "> 5.00"],
  ["COc1ncc(-c2ccc3ncc(C(=O)N4CCOCC4)n3c2)cc1NS(=O)(=O)c1ccc(F)cc1F [compound 417]", "p110δ/p85α (Homo sapiens (Human), UniProt O00329)", "> 7.00"],
  ["C[C@H]1CN(C2CN(C(=O)c3cnc4ccc(-c5ccc6oc(N)nc6c5)cn34)C2)CCN1C [compound 512]", "p110δ/p85α (Homo sapiens (Human), UniProt O00329)", "> 6.00"],
  ["Nc1nc2cc(-c3ccc4ncc(N5CCNC(C(F)F)C5)nc4c3)ccc2o1 (stereo not drawn) [compound 413]", "p110δ/p85α (Homo sapiens (Human), UniProt O00329)", "> 5.00"],
  ["CN(C(=O)c1cnc2ccc(-c3ccc4oc(N)nc4c3)cn12)C1CCOCC1 [compound 472]", "p110δ/p85α (Homo sapiens (Human), UniProt O00329)", "> 5.00"],
  ["O=C(c1cnc2ccc(-c3cncc(NS(=O)(=O)c4ccc(F)cc4F)c3)cn12)N1CCOCC1 [compound 425]", "p110δ/p85α (Homo sapiens (Human), UniProt O00329)", "> 6.00"],
  ["Nc1nc2cc(-c3ccc4ncc(C(=O)N5CCC(N6CCC(F)(F)C6)C5)n4c3)ccc2o1 (stereo not drawn) [compound 500]", "p110δ/p85α (Homo sapiens (Human), UniProt O00329)", "> 5.00"],
  ["COc1ncc(-c2ccc3ncc(C(=O)N4CCOCC4)n3c2)cc1NS(=O)(=O)c1ccc(F)cc1 [compound 421]", "p110δ/p85α (Homo sapiens (Human), UniProt O00329)", "> 7.00"],
  ["Nc1nc2cc(-c3ccc4ncc(C(=O)N5CC(N6CC[C@H](O)C6)C5)n4c3)ccc2o1 [compound 469]", "p110δ/p85α (Homo sapiens (Human), UniProt O00329)", "> 5.00"],
  ["C[C@H]1CCCN1C(=O)c1cnc2ccc(-c3ccc4oc(N)nc4c3)cn12 [compound 482]", "p110δ/p85α (Homo sapiens (Human), UniProt O00329)", "> 5.00"],
  ["Nc1nc2cc(-c3ccc4ncc(C(=O)N5CC[C@@H](N6CCOCC6)C5)n4c3)ccc2o1 [compound 466]", "p110δ/p85α (Homo sapiens (Human), UniProt O00329)", "> 5.00"],
  ["C[C@H]1CN(C2CN(C(=O)c3cnc4ccc(-c5ccc6oc(N)nc6c5)cn34)C2)CCN1 [compound 510]", "p110δ/p85α (Homo sapiens (Human), UniProt O00329)", "> 6.00"],
  ["COc1ncc(-c2ccc3ncc(C(=O)N4CCOCC4)n3c2)c2cn[nH]c12 [compound 517]", "p110δ/p85α (Homo sapiens (Human), UniProt O00329)", "> 5.00"],
  ["CC(C)N1CCC(n2cnc3ccc(-c4cnc(Cl)c(NS(=O)(=O)c5ccccc5)c4)cc3c2=O)CC1 [compound 521]", "p110δ/p85α (Homo sapiens (Human), UniProt O00329)", "> 7.00"],
  ["Nc1nc2cc(-c3ccn4ncc(C(=O)N5CCC(N6CCOCC6)CC5)c4c3)ccc2o1 [compound 398]", "p110δ/p85α (Homo sapiens (Human), UniProt O00329)", "> 5.00"],
  ["COc1ncc(-c2ccc3ncc(C(=O)N4CCOCC4)n3c2)cc1NS(=O)(=O)c1ccccc1 [compound 420]", "p110δ/p85α (Homo sapiens (Human), UniProt O00329)", "> 6.00"],
  ["COc1ncc(-c2ccc3ncn(C4CCN(C)CC4)c(=O)c3c2)cc1NS(=O)(=O)c1ccccc1 [compound 524]", "p110δ/p85α (Homo sapiens (Human), UniProt O00329)", "> 7.00"],
  ["O=C(c1cnc2ccc(-c3cnc(Cl)c(NS(=O)(=O)c4ccccc4F)c3)cn12)N1CCOCC1 [compound 452]", "p110δ/p85α (Homo sapiens (Human), UniProt O00329)", "> 7.00"],
  ["CC(C)N1CCC(n2cnc3ccc(-c4cncc(NS(=O)(=O)c5ccc(F)cc5F)c4)cc3c2=O)CC1 [compound 519]", "p110δ/p85α (Homo sapiens (Human), UniProt O00329)", "> 5.00"]
]}

====

# IC50 values compiled below
- system: p110α/p85α (Homo sapiens (Human), UniProt P42336)
- Sequence (P42336 whole entry, one chain of several): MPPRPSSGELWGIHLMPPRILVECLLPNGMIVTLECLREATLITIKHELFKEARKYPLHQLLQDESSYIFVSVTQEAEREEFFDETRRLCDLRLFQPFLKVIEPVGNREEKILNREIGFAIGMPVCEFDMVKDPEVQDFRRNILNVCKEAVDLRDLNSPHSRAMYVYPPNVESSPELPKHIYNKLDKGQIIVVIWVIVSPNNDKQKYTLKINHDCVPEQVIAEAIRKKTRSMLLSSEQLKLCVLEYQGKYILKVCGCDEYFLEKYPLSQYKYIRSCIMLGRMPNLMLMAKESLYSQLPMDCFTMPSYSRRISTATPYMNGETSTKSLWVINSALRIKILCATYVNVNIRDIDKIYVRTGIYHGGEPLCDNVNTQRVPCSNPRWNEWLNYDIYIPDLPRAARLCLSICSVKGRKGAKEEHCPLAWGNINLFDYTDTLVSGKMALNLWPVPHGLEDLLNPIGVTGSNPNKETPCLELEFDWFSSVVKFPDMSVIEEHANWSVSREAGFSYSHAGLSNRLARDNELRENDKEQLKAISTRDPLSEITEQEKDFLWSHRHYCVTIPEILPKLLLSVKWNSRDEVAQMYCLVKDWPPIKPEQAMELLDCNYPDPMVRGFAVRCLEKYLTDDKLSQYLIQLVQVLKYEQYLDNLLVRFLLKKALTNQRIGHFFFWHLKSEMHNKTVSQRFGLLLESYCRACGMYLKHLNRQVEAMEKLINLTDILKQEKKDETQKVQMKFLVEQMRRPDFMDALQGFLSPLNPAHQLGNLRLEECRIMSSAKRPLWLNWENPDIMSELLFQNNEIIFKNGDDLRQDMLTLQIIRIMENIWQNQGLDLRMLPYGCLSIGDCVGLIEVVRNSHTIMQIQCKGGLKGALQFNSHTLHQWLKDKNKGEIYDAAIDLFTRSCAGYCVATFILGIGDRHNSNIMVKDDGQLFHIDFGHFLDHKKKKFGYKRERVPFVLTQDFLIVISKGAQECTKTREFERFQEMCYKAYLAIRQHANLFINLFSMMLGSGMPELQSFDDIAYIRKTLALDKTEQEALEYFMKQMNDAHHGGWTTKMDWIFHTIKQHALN
- experimental_protocol: PI 3-Kinase (human) HTRF assay, p110α/p85α
- Type: biochemical
- condition_info: read-out: PI3K α In Vitro IC50

{"columns": ["smiles_text", "IC50"],
 "data": [
  ["COc1ncc(-c2ccc3ncc(C(=O)N4CCOCC4)n3c2)cc1NS(C)(=O)=O", "< 100 nM"],
  ["O=C(c1cnc2ccc(-c3cccc(NS(=O)(=O)c4ccc(F)cc4F)c3)cn12)N1CCOCC1", "< 10000 nM"],
  ["CC1(C)CN(C(=O)c2cnc3ccc(-c4ccc5oc(N)nc5c4)cn23)CCO1", "< 1000 nM"],
  ["Nc1nc2cc(-c3ccc4ncc(C(=O)N5CCC(F)(F)C5)n4c3)ccc2o1", "< 100 nM"]
]}

====

// reported pIC50 per item
- system: recombinant mTOR (Homo sapiens (Human))
- Sequence (P42345 1360-2549): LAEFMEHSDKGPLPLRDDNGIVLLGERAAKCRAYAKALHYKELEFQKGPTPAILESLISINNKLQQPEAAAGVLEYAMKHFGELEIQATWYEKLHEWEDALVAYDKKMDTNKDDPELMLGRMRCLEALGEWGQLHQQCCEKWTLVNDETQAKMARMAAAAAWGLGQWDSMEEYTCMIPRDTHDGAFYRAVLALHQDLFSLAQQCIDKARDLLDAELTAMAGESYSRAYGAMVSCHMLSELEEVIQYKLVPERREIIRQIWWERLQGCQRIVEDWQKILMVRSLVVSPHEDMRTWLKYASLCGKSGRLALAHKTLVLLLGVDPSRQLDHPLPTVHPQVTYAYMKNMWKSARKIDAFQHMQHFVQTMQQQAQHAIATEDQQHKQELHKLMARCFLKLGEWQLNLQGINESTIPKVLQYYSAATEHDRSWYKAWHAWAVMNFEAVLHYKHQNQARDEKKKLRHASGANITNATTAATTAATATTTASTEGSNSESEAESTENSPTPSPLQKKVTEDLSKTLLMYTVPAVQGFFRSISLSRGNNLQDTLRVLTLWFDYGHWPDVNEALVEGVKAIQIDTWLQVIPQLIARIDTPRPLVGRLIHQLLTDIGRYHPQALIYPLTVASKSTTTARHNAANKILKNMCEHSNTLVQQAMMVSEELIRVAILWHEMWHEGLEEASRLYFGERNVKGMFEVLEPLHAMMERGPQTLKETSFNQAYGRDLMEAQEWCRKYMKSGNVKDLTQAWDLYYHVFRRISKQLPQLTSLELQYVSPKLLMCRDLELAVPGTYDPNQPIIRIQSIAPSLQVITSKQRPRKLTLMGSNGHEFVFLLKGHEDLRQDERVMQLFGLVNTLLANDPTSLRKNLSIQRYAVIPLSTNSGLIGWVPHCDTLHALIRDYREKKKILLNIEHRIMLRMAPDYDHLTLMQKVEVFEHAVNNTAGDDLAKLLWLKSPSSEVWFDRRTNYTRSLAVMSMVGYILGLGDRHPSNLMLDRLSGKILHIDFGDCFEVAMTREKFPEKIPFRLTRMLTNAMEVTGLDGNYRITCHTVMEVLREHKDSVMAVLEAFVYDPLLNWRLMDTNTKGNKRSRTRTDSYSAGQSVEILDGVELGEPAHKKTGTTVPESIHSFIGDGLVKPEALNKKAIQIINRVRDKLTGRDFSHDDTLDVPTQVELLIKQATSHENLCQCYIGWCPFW
- experimental_protocol: mTOR inhibition assay (radiometric or LanthaScreen TR-FRET)
- Format: biochemical
- condition_info: in vitro; read-out: MTORC IC50
pIC50: −log10 of the molar value.

{"columns": ["smiles_text", "pIC50"],
 "data": [
  ["Nc1nc2cc(-c3ccc4ncc(N5CC(N6CC[C@@H](O)C6)C5)nc4c3)ccc2o1", "> 6.00"],
  ["CS(=O)(=O)N1CCN(C2CCN(c3cnc4ccc(-c5ccc6oc(N)nc6c5)cc4n3)CC2)CC1", "> 5.00"],
  ["CC(=O)Nc1ncc(-c2ccc3oc(N)nc3c2)s1", "> 5.00"],
  ["CC(C)Oc1nc(-c2ccc3oc(N)nc3c2)cnc1N", "> 6.00"],
  ["CN1CCN(c2cnc3ccc(-c4ccc5oc(N)nc5c4)cc3n2)CC1=O", "> 5.00"],
  ["CN1CCN(C2CN(c3cnc4ccc(-c5ccc6oc(N)nc6c5)cc4n3)C2)CC1", "> 5.00"],
  ["C[C@@H]1CN(C(=O)C2CN(c3cnc4ccc(-c5ccc6oc(N)nc6c5)cc4n3)C2)CCN1", "> 5.00"],
  ["CC(=O)Nc1cn2cc(-c3ccc4oc(N)nc4c3)ccc2n1", "> 6.00"],
  ["Nc1nc2cc(-c3ccc4ncc(N5CC(n6cccn6)C5)nc4c3)ccc2o1", "> 6.00"],
  ["COC(=O)N1CCC(n2ncc3c(N4CCOCC4)nc(-c4ccc5oc(N)nc5c4)nc32)CC1", "> 6.00"],
  ["Nc1nc2cc(-c3ccc4ncc(N5CCC(n6ccnc6)CC5)nc4c3)ccc2o1", "> 5.00"]
]}
